Data origin, for the record: the kinase profiling compilation of Christmann-Franck et al. (2016)

Biological target: MAPKAPK5 (human) (UniProt Q8IW41)
Sequence (Q8IW41 whole entry, looked up): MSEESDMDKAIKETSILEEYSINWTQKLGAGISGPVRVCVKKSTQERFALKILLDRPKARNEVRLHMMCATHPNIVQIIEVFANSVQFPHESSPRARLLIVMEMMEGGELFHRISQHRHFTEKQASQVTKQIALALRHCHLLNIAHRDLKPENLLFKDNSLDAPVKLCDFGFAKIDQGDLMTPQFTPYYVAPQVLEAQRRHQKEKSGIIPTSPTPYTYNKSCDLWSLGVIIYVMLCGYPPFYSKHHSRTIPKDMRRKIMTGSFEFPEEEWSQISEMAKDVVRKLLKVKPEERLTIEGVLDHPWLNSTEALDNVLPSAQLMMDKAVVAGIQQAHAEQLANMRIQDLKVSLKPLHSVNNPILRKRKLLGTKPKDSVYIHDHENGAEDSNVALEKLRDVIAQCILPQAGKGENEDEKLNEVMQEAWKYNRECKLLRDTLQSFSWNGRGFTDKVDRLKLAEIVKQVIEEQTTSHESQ
Experiment: radiometric filter-binding kinase assay
Settings: compound 10.0 µM
endpointLabel: residual activity (%)

Some compounds with known residual activity results, for comparison:
Cc1cc(SCc2sc(-c3ccc(C(F)(F)F)cc3)nc2C)ccc1OCC(=O)O : 39
O=C(O)c1ccc(-c2c[nH]c3ncc(-c4ccccc4)cc23)cc1C1CCCC1 : 73
CCNc1nc(Nc2cc(F)c(C(=O)N3CCOCC3)cc2OC)ncc1C(F)(F)F : 55
Cc1ccc(-c2ccc3c(ccc4sc5c(c43)NC[C@@H](C)NC5=O)n2)cn1 : 24
Oc1ccc(/C=C/c2cc(O)cc(O)c2)cc1 : 85

P = Cn1nc(Nc2ccc(F)cc2)c2c(N)ncnc21
Q = NC(=O)c1cc(-c2ccnc(NC3CCCCC3)c2)nc(N2CCNCC2)c1
Which has the higher residual activity, P or Q ? Write the label of whichever entry you select.
P

a = Nc1cccc2c1CN(C1CCC(=O)NC1=O)C2=O (centres undefined)
b = O=C1Nc2nc(-c3c(O)cccc3OCC3CC3)cc(C3CCCNC3)c2CO1 (centres undefined)
c = NC(=O)c1cc2c(-c3cccc(-c4ccccc4)c3)cnc(N)c2s1
d = O=c1c(O)c(-c2ccc(O)c(O)c2)oc2cc(O)c(O)c(O)c12
List from greatest to least residual activity. Please list the labels according to the requested order.
a, b, c, d

P = CCCCCc1ccc(/C=C/[C@H](O)[C@@H](CO)NC)cc1
Q = c1ccc2c(-c3cnn4cc(-c5ccc(N6CCNCC6)cc5)cnc34)ccnc2c1
Record comparison, field residual activity: mark the lower of P and Q . API: response body contains the label of the selected item.
Q

1 = CCc1cncnc1N1CCN(Cc2nc3cc(C(F)(F)F)ccc3[nH]2)CC1
2 = COc1cc(C(=O)N2CCOCC2)c(F)cc1Nc1ncc(C(F)(F)F)c(NC2CC2)n1
Returns: the argument ( 1 or 2 ) having the larger residual activity. Choose, then provide that item's label.
1
(1: 87%, 2: 49%)

====

Target: IKBKE (human)
Assay: radiometric filter-binding kinase assay
Conditions: compound 0.1 µM
endpointLabel: residual activity (%)

CN1CCN(CCOc2cc(OC3CCOCC3)c3c(Nc4c(Cl)ccc5c4OCO5)ncnc3c2)CC1 : 88
O=C(Nc1ccccc1-c1cn2c(CN3CCNCC3)csc2n1)c1cnc2ccccc2n1 : 90
O=C(Nc1nc2cc(C(F)(F)F)cc(NC3CC3)n2n1)c1cccnc1 : 106
NC(=O)c1cc(-c2ccnc(NC3CCCCC3)c2)nc(N2CCNCC2)c1 : 98
COc1cc(O)c2c(c1)[C@H]1OC1C[C@H](O)[C@H](O)C(=O)/C=C\C[C@H](C)OC2=O (some centres undefined) : 105
Cc1ccc(Sc2cnc(Nc3cccc(Br)n3)s2)cc1C(=O)N1CCN(C(=O)CN)CC1 : 91
CN(C)C/C=C/C(=O)Nc1cccc(C(=O)Nc2ccc(Nc3nccc(-c4cccnc4)n3)cc2)c1 : 97
NC(=O)c1cc2c(-c3cccc(-c4ccccc4)c3)cnc(N)c2s1 : 109
CCCCCc1ccc(/C=C/[C@H](O)[C@@H](CO)NC)cc1 : 106
CC1=C(CO)C(=O)O[C@@H]([C@@H](C)[C@H]2CC[C@H]3[C@@H]4C[C@H]5O[C@]56[C@@H](O)C=CC(=O)[C@]6(C)C4CC[C@]23C)C1 (some centres undefined) : 96
NC1(c2ccc(-c3nc4ccn5c(=O)[nH]nc5c4cc3-c3ccccc3)cc2)CCC1 : 88
C=CC(=O)N1CCC[C@@H](n2nc(-c3ccc(Oc4ccccc4)cc3)c3c(N)ncnc32)C1 : 100
c1ccc2c(-c3cnn4cc(-c5ccc(N6CCNCC6)cc5)cnc34)ccnc2c1 : 87
O=C(O)c1ccc(-c2c[nH]c3ncc(-c4ccccc4)cc23)cc1C1CCCC1 : 91
